Where do these numbers come from? They come from patent US20260226068A1.

# target_under_test: IL-17A/F (Homo sapiens, UniProt Q16552+Q96PD4)
# Sequence (Q16552 24-155): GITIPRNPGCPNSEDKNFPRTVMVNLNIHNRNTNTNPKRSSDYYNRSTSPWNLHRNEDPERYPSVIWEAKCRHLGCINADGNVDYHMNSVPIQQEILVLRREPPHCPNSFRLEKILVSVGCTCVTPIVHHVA
# Sequence (Q96PD4 31-163): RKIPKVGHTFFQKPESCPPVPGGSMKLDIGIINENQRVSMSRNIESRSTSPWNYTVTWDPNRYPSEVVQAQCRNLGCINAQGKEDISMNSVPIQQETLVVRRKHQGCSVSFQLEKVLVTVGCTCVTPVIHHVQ
# measurement_notes: IL-17A/F HEK-Blue cell assay (SEAP reporter)
# assay_setup: HEK-Blue IL-17A reporter cells, IL17A/F 5 ng/mL, 20 hours, SEAP read at A630; read-out: HEK-Blue IL17AF (IC50 for IL-17A/F inhibition)
# IC50 annotations
endpoint_name: IC50

- CCn1nccc1C(=O)N[C@H](c1cn2nc(C[C@H]3C[C@@H](C(F)(F)F)CNC3=O)c(C3CCOCC3)nc2n1)[C@@H]1CC[C@@H]2C[C@@H]2CC1 (single isomer, unassigned): < 100 nM
- CCn1nccc1C(=O)N[C@H](c1cn2nc(C[C@H]3C[C@@H](C(F)(F)F)CNC3=O)c(N3CCN(C)C4(CC4)C3)nc2n1)C1CCC(F)(F)CC1: 100 to 1000 nM
- CCn1nccc1C(=O)N[C@H](c1cn2nc(C[C@H]3C[C@@H](C(F)(F)F)CNC3=O)c(N3CCN4CCOC[C@@H]4C3)nc2n1)C1CCC(F)(F)CC1: < 100 nM
- CCn1nccc1C(=O)N[C@H](c1cn2nc(C[C@H]3C[C@@H](C(F)(F)F)CNC3=O)c(C34COCC(C3)C4)nc2n1)C1CCC(F)(F)CC1: 100 to 1000 nM
- CCn1nccc1C(=O)N[C@H](c1cn2nc(C[C@H]3C[C@@H](C(F)(F)F)CNC3=O)c(C3(OC)CCOCC3)nc2n1)C1CCC(F)(F)CC1: > 1000 nM
